Biological target: T1, TGFβ3 (R&D Systems) (Homo sapiens (Human), UniProt P10600 301-412, Active TGFβ3 is a disulfide-linked homodimer of this chain; one copy is given.)
T1 sequence: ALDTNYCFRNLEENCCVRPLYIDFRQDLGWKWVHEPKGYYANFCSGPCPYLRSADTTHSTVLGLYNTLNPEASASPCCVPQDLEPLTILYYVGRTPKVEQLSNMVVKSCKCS
Experiment: cell-based or functional assay
// reported pSmad-3, IC50 per item

binder	pSmad-3, IC50 (nM)
affinity matured HcLb 217 (antibody, V domains shown, full IgG; also called canHcLb/S55W/D100Y/I30/M + canHcLb/237ND/242TS) VH: EVQLVQSGAEVKKPGASVKVSCKTSGYTFMTYWMNWVRQAPGAGLDWMGQIFPAWGSTNYNEMFEGRVTLTADTSTSTAYMELSSLRAGDIAVYYCARGYGNYALDAMDYWGQGTLVTVSS VL: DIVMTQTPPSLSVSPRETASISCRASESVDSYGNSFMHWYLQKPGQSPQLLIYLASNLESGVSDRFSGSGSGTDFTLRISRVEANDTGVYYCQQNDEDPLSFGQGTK	1.44
affinity matured HcLb 190 (antibody, V domains shown) VH: EVQLVQSGAEVKKPGASVKVSCKTSGYTFITYWMNWVRQAPGAGLDWMGQIFPGSGSTNYNEMFEGRVTLTADTSTSTAYMELSSLRAGDIAVYYCARGYGNYALDAMDYWGQGTLVTVSS VL: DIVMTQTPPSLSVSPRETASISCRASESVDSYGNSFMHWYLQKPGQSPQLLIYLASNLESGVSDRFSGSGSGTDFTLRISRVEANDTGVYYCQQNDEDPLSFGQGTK	7.79
affinity matured HcLb 91 (antibody, V domains shown) VH: EVQLVQSGAEVKKPGASVKVSCKTSGYTFITYWMNWVRQAPGAGLDWMGQIFPAWGSTNYNEMFEGRVTLTADTSTSTAYMELSSLRAGDIAVYYCARGDGNYALDAMDYWGQGTLVTVSS VL: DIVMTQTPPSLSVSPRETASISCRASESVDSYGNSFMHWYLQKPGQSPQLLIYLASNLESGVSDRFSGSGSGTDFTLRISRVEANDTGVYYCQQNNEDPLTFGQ	2.31
